# experimentDescription: in vivo
# Parameters: species or system SD Rat
# appliedConditions: Sprague-Dawley, rat, po, 9 mg/kg
observable: CL/F (L/h/kg)

In [3]: df
Out[3]:
                                        smi  measvalue
0  CS(=O)(=O)O.C[C@H](NCc1ccc(-c2ccc(C(F)(F)F)cc2)cc1)C(N)=O       1.14

====

# experimentDescription: Preclinical pharmacokinetics in monkeys
# Format: in vivo, Cynomolgus monkey
# appliedConditions: male, cynomolgus, cynomolgus monkey, in vivo, po, 10 mg/kg
observable: AUC(0-t) (ng·h/mL)

                                        smi  observable  measvalue
0  CS(=O)(=O)O.C[C@H](NCc1ccc(-c2ccc(C(F)(F)F)cc2)cc1)C(N)=O    AUC(0-t)      30600
